Test: NCI Yeast Anticancer Drug Screen. Data for the mec2-1 strain (AID 157)
Conditions: S. cerevisiae mec2-1 strain, at 50.0 µM, stronger effect = higher value
Compounds without any hit were thinned out: in the full panel of roughly 79,000, 15% have a hit.
Entries annotated with measured growth inhibition
Numbers only here, please. The scale is %.

Example results:
CC(=O)c1cccs1 = -0.05
N#Cc1ccc2nc[nH]c2c1 = -6.75

What value of growth inhibition has been recorded for this entry: O=C1C=Cc2ccccc2/C1=C/c1[nH]c(=O)[nH]c1O
-1.35

// growth inhibition lookup, key: BrCc1cccc(C[P+](c2ccccc2)(c2ccccc2)c2ccccc2)c1
41.9

Quick one: growth inhibition of OCC(O)COc1ccc(Cl)cc1Cl (configuration not stated) ?
6.25

Value lookup for growth inhibition; key = CC(C)(C)NCCC(O)c1cc(C(F)(F)F)nc2c(C(F)(F)F)cccc12 (configuration not stated)
-36.1

Would you mind telling me what growth inhibition value was observed for OCCc1ccc(Cl)cc1 ?
8.15

====

Known growth inhibition of a selection of molecules
Experiment: NCI Yeast Anticancer Drug Screen. Data for the mlh1 rad18 strain (AID 175)
Conditions: S. cerevisiae mlh1 rad18 strain growth inhibition; at 50.0 µM; stronger effect = higher value
Compounds without any hit were thinned out: in the full panel of roughly 79,000, 15% have a hit.
Provide the reading as a plain figure in %.

// known answers, use as guide
COc1ccc(NNS(=O)(=O)O)cc1 = 4
Cc1nc(O)cc(=O)[nH]1 = 10.1
Cc1cc2c3ccc(C)[n+](C)c3ccc2n1C = -5.25
Cc1c(Cl)cccc1NC(=S)NC(=O)c1ccccc1 = 18.1
NC(CSSCC(N)C(=O)O)C(=O)O (configuration not stated) = -2.05

So what does the record say about growth inhibition for CCCCNC(=O)c1ccc(OCC)cc1 ?
-0.1

Report growth inhibition for O=C(CCl)Nc1ccccc1SCc1cc(Cl)cc2c1OCOC2 please.
-8.9

====

Experiment: NCI Yeast Anticancer Drug Screen. Data for the sgs1 mgt1 strain (AID 161);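 further: 0% = growth of cultures given vehicle only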
Conditions: S. cerevisiae sgs1 mgt1 strain, at 50.0 µM, stronger effect = higher value
Compounds without any hit were thinned out: in the full panel of roughly 79,000, 15% have a hit.
This section presents compounds with their documented growth inhibition values.
// return numeric value only (unit: %, not printed)

The cases that follow already have their growth inhibition on record.
Oc1ccc(N=Cc2ccc(OCc3ccccc3)cc2)cc1 = 15.2
CCOC(=O)C1(N)CCCCC1 = 11.1
Nc1cc2c(cc1Cl)C(=O)c1ccccc1C2=O = 9.75

What value of growth inhibition has been reported for the following compound? C/C(=N\O)c1ccccn1
-17.9

Consider the compound shown here: C=CC1=NC(C)(C)CC(C)O1 (centres undefined) What is its recorded growth inhibition?
9.75

For the compound C=COC(=O)CCOCC(CC)CCCC (centres undefined) , what growth inhibition is on record?
8.95

Query: growth inhibition; subject: Nc1ccc2ccccc2c1-c1c(N)ccc2ccccc12
-2.05

====

Assay: NCI Yeast Anticancer Drug Screen. Data for the bub3 strain (AID 167)
Conditions: S. cerevisiae bub3 mutant strain, at 50.0 µM, stronger effect = higher value
This is part of a sample that, as a whole, favours compounds with a hit. Of some 79,000 tested, about 15% had one in any assay. Calls of active or inactive are those of the source. No stated cut-off is given here; in the data, active means growth inhibition above about 70%; inactive means the rest.
Measured parameter: growth inhibition

Looking for the measured growth inhibition of Oc1cc(O)c2c(c1)O[C@H](c1ccc(O)c(O)c1)[C@@H](O)C2 , can you help?
-6.45% (inactive)

Reported growth inhibition, molecule Nc1ncnc2c1ncn2C1OC(CO)C2OC21 (centres undefined) : ____
-5.95% (inactive)

Please look up its growth inhibition: NNc1ncnc2nc[nH]c12
-15.9% (inactive)

Value lookup for growth inhibition; key = O=C(O)Cc1ccccn1
-28.8% (inactive)

Field request: growth inhibition | item: C1CCc2onc(-c3noc4c3CCCCC4)c2CC1
-21.4% (inactive)

Which growth inhibition value belongs to CCC1CCC(C)NC1 (centres undefined) ?
-7.05% (inactive)

Tell me the measured growth inhibition of Cc1c(Cl)cccc1N=C=S , please.
-0.95% (inactive)

Need growth inhibition, item O=C(NCc1ccccc1)/C(=C/c1ccccc1)NC(=O)c1ccccc1
-12.3% (inactive)

I'd like to know its growth inhibition. The molecule in question is C=CCC(O)C=C (centres undefined)
-5.35% (inactive)

# get_value(readout='growth inhibition', item= COc1nc2ccccc2s1 )
1.5% (inactive)

Any idea what growth inhibition was measured for S=c1nc(-c2ccccn2)c(-c2ccccn2)n[nH]1 ?
-21.8% (inactive)
